system: Recombinant human FAP (Homo sapiens, UniProt Q12884)
Construct: made in house
Sequence (Q12884 1-760): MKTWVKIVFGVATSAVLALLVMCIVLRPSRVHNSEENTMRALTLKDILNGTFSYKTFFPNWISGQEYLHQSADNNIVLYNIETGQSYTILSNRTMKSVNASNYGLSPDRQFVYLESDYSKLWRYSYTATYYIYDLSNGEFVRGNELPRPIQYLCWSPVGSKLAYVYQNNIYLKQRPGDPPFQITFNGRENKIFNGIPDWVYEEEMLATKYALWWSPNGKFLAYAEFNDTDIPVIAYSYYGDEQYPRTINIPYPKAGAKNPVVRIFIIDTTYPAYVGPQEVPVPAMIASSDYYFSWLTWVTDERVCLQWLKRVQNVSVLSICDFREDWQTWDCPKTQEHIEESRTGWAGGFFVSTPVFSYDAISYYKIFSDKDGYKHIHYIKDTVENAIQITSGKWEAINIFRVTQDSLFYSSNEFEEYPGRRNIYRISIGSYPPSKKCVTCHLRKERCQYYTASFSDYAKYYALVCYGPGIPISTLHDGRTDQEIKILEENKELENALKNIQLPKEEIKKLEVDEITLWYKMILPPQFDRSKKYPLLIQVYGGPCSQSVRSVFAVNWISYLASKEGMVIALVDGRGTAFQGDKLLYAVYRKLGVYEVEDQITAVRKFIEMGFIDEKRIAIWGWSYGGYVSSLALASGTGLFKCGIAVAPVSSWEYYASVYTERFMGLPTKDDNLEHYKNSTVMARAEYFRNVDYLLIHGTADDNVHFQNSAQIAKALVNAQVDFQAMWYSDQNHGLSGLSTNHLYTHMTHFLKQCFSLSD
method.summary: FAP inhibition assay (IC50, Z-Gly-Pro-AMC substrate)
Assay type: biochemical
run.parameters: ratio of PREP IC50 and FAP IC50
Hi there, I'd appreciate the recorded Selectivitiy Index (FAP/PREP) for every entry that follows.
Reply with the value as a number alone.

Exercise: # lookup: Selectivitiy Index (FAP/PREP) of N#C[C@@H]1CC(F)(F)CN1C(=O)CNC(=O)c1ccnc2ccc(OCCCCNc3c(NCCNC(=O)CCCCC4(N(CC(=O)O)CC(=O)O)CN(CC(=O)O)CCN(CC(=O)O)C4)c(=O)c3=O)cc12
Key: 4286

Exercise: # lookup: Selectivitiy Index (FAP/PREP) of N#C[C@@H]1CC(F)(F)CN1C(=O)CNC(=O)c1ccnc2ccc(OCCCCNc3c(NCCNC(=O)CCCCC4(N(CC(=O)[O-])CC(=O)[O-])CN(CC(=O)[O-])CCN(CC(=O)[O-])C4)c(=O)c3=O)cc12.[Sc+3] [[^natSc]Sc-AAZTA^5.SA.FAPi]
Key: 6316

Exercise: # lookup: Selectivitiy Index (FAP/PREP) of CN(CC(=O)O)C1(CCCCC(=O)NCCNc2c(NCCCCOc3ccc4nccc(C(=O)NCC(=O)N5CC(F)(F)C[C@H]5C#N)c4c3)c(=O)c2=O)CN(CC(=O)O)CCN(CC(=O)O)C1 [DATA^5m.SA.FAPi, reference compound]
Key: 2113

Exercise: # lookup: Selectivitiy Index (FAP/PREP) of N#C[C@@H]1CC(F)(F)CN1C(=O)CNC(=O)c1ccnc2ccc(OCCCCNc3c(NCCNC(=O)CCCCC4(N(CC(=O)[O-])CC(=O)[O-])CN(CC(=O)[O-])CCN(CC(=O)[O-])C4)c(=O)c3=O)cc12.[Lu+3] [[^natLu]Lu-AAZTA^5.SA.FAPi]
Key: 5818
